A collection of compounds and their measured pIC50
- target or system: voltage-dependent T-type calcium channel subunit alpha-1G (Cav3.2) (Homo sapiens, UniProt O95180)
- Sequence (O95180 whole entry): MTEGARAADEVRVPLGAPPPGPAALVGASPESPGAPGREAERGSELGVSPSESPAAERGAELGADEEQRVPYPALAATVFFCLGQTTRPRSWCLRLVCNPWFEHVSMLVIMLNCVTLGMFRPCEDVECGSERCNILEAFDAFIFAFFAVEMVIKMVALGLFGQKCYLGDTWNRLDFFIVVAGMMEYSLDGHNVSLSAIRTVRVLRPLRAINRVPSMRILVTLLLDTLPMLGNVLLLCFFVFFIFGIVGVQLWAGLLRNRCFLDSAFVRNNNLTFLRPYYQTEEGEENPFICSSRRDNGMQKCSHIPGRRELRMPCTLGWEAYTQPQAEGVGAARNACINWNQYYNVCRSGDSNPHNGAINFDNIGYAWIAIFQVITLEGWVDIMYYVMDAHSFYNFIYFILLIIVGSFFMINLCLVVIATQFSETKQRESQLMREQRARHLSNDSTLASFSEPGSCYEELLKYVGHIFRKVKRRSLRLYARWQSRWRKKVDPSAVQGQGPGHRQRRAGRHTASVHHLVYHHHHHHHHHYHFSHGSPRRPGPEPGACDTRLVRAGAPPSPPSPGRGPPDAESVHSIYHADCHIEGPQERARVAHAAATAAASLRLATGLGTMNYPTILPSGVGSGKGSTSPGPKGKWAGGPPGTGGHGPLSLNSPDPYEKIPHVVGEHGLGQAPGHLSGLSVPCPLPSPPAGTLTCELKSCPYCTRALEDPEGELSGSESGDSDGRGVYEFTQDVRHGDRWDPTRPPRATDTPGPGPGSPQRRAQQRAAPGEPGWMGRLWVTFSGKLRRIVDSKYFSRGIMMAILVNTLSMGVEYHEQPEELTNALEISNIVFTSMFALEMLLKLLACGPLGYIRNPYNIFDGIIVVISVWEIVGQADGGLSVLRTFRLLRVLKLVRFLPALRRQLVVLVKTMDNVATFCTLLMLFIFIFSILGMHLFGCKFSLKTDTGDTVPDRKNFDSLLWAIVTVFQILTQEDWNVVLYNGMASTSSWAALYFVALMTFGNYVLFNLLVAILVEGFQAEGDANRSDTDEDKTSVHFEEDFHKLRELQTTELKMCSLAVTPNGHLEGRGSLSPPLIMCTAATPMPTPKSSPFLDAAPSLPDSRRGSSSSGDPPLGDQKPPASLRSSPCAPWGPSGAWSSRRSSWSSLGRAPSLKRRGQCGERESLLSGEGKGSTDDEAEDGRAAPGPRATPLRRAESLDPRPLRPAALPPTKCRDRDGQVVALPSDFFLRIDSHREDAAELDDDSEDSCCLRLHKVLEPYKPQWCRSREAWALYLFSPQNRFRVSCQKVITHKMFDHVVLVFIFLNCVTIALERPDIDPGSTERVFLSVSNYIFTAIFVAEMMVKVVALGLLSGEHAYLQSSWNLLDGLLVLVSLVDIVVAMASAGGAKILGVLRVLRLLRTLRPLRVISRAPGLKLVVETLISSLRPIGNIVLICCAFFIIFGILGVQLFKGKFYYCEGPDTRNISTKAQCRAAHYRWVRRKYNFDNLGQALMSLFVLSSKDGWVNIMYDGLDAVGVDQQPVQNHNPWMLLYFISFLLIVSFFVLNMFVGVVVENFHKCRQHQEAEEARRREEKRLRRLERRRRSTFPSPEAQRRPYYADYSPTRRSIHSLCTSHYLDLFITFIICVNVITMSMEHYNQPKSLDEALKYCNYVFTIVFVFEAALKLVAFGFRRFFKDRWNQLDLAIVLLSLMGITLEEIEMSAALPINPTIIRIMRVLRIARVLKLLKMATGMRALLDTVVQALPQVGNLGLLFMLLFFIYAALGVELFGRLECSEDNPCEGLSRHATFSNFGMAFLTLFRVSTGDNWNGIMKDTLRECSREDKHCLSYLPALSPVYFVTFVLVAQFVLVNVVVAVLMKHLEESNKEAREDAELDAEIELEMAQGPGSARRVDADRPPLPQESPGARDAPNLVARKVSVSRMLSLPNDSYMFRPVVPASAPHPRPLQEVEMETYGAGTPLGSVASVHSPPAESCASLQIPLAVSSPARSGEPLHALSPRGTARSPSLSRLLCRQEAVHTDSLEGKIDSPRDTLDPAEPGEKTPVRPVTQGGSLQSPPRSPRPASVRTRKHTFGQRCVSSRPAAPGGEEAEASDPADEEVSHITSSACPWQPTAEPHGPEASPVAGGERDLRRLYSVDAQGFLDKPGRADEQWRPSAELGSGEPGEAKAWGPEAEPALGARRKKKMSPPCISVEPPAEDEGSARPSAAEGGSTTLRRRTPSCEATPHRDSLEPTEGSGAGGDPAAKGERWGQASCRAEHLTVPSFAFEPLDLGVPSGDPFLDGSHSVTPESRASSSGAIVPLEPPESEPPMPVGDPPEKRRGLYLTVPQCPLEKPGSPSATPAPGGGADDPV
- test: FLIPR calcium flux assay, HEK293 cells recombinantly expressing Cav3.2
- condition notes: Cav3.2-channel, Fluo-4-AM, 3 min incubation, stimulation with 10 mM CaCl2
pIC50 here is simply -log10 of the concentration when that concentration is written in mol/L.

structure notation	pIC50
COc1c(F)cc(Cn2ccc(NC(=O)Cc3ccc(N(C)C)nc3)n2)cc1F	7.09

Problem: Can you look up the measured pIC50 of "CN(c1ccc(CC(=O)Nc2ccn(Cc3ccc(F)c(F)c3)n2)cn1)C1CC1" for me?
Result: 7.89

Problem: // query pIC50 value for entry "Cn1ccc2cc(CC(=O)Nc3ccn(Cc4ccc(F)c(C#N)c4)n3)ccc21"
Result: 7.89

Problem: Looking for the measured pIC50 of "CC(C)Cc1ccc(Cn2ccc(NC(=O)Cc3ccc(C(C)C)cc3)n2)nc1" , can you help?
Result: 7.42

Problem: Report pIC50 for "Cc1ccc(CC(=O)Nc2ccn(Cc3ccc(C#N)cn3)n2)cc1OCC(F)(F)F" please.
Result: 7.27

Problem: Form field: reported pIC50 of "N#Cc1ccc(Cn2ccc(NC(=O)Cc3ccc(OC4CCC4)cc3)n2)nc1"
Result: 6.75

Problem: Any idea what pIC50 was measured for "COc1ccc(Cn2ccc(NC(=O)Cc3ccc(N4CCC4)cc3)n2)cc1" ?
Result: 7.48

Problem: Fill in the blank: the reported pIC50 of "O=C(Cc1ccc(N2CC(F)(F)C2)nc1)Nc1ccn(Cc2ccc(F)cc2)n1" is ____.
Result: 7.36

Problem: Which pIC50 reading was recorded for the compound "COc1ccc(Cn2ccc(NC(=O)Cc3ccc(OCC(F)(F)F)cc3)n2)cc1" ?
Result: 7.48

====

Reported pIC50 values for a set of molecules
- target or system: voltage-dependent T-type calcium channel subunit alpha-1G (Cav3.2) (Homo sapiens)
- test: FLIPR calcium flux assay, HEK293 cells recombinantly expressing Cav3.2
- condition notes: Cav3.2-channel, Fluo-4-AM, 3 min incubation, stimulation with 10 mM CaCl2
// scale note: pIC50 = -log10(conc_M); give the bare number

Please review the following examples before continuing.
molecule	reported measurement
N#Cc1ccc(Cn2ccc(NC(=O)Cc3ccc(OCC4(F)COC4)cc3)n2)cc1	6.60
O=C(Cc1ccc(N2CC(F)C2)cc1)Nc1ccn(Cc2ccc(F)cc2)n1	8.10
O=C(Cc1ccc(C2CC2)nc1)Nc1ccn(Cc2ccc(Cl)c(F)c2)n1	7.11
COc1ccc(Cn2ccc(NC(=O)Cc3ccc(N4CC(F)(F)C4)cc3)n2)cc1	7.80
N#Cc1ccc(Cn2ccc(NC(=O)Cc3ccc(C4(C#N)CC4)c(C(F)(F)F)c3)n2)nc1	7.01

Problem: # get_value(readout='pIC50', item= COC(C)c1ccc(CC(=O)Nc2ccn(Cc3ccc(C#N)cn3)n2)cc1 (racemic) )
Result: 5.90

Problem: Dear colleague, I am looking for the recorded pIC50 of the following molecule: "N#Cc1ccc(Cn2ccc(NC(=O)Cc3ccc(OCC4COC4)cc3)n2)nc1"
Result: 5.02

Problem: pIC50 for "CC(C)c1ccc(CC(=O)Nc2ccn(Cc3ccc(C#N)c(F)n3)n2)cc1" ?
Result: 8.12

Problem: What value of measured pIC50 is listed for "N#Cc1ccc(Cn2ccc(NC(=O)Cc3ccc(OCC4COC4)cc3)n2)cc1" ?
Result: 6.41

Problem: Query: pIC50; subject: "N#Cc1ccc(Cn2ccc(NC(=O)Cc3ccc(N4CCC(F)(F)C4)nc3)n2)cc1"
Result: 7.17

Problem: Reported pIC50, molecule "N#Cc1ccc(Cn2ccc(NC(=O)Cc3ccc(OC4COC4)cc3)n2)cc1F" : ____
Result: 7.00

Problem: Quick one: pIC50 of "N#Cc1nc(Cn2ccc(NC(=O)Cc3ccc(C4(C(F)(F)F)CC4)cc3)n2)ccc1F" ?
Result: 7.74

Problem: Item "O=C(Cc1ccc(OC2CCC2)cc1)Nc1ccn(Cc2ccc(F)cc2)n1" has what recorded pIC50?
Result: 7.80

Problem: What does the record list as pIC50 for "Cc1ccc(Cn2ccc(NC(=O)Cc3ccc(C(C)(C)C)cc3)n2)nc1C#N" ?
Result: 7.89

Problem: Recorded pIC50 of "O=C(Cc1ccc(N2CCC2)cc1)Nc1ccn(Cc2ccc(F)c(F)c2)n1" , please.
Result: 8.33

Problem: Which pIC50 is listed for "Cc1nc(Cn2ccc(NC(=O)Cc3ccc(C(C)C)cc3)n2)ccc1C#N" ?
Result: 7.29

Problem: Requested field: pIC50. Item: "CCN(C)c1ccc(CC(=O)Nc2ccn(Cc3ccc(F)c(F)c3)n2)cc1"
Result: 6.53
